Tested on: MCF7
protocol: Antiproliferative activity against human MCF7 cells incubated for 48 hrs by MTT assay
Type: functional, cell-based
cond: MCF7, 48 h
Rule: IC50 below 20 µM gives 1, anything at or above gives -1.

Below are worked cases with known answers.
>  <compound>
Cc1ccc(C2=NN(c3ccc(S(N)(=O)=O)cc3)C(c3cccc4ccccc34)C2)cc1 (centres undefined)

>  <classification>
1

$$$$
>  <compound>
CCOc1ccc(C2=NN(c3ccc(S(N)(=O)=O)cc3)C(c3cccc4ccccc34)C2)cc1 (centres undefined)

>  <classification>
-1

$$$$
>  <compound>
NS(=O)(=O)c1ccc(N2N=C(c3ccccc3Cl)CC2c2cccc3ccccc23)cc1 (centres undefined)

>  <classification>
-1

$$$$

Threshold test, IC50 < 20 µM: Cc1ccc(C2=NN(c3ccc(S(N)(=O)=O)cc3)C(c3cccc4ccccc34)C2)c(C)c1 (centres undefined) 1

Threshold test, IC50 < 20 µM: NS(=O)(=O)c1ccc(N2N=C(c3ccccc3)CC2c2cccc3ccccc23)cc1 (centres undefined) -1

Threshold test, IC50 < 20 µM: COc1ccc(C2=NN(c3ccc(S(N)(=O)=O)cc3)C(c3cccc4ccccc34)C2)cc1 (centres undefined) -1

Threshold test, IC50 < 20 µM: Cc1ccc(-c2cc(C(F)(F)F)nn2-c2ccc(S(N)(=O)=O)cc2)cc1 [CELECOXIB] 1

Threshold test, IC50 < 20 µM: Cc1cccc(C2=NN(c3ccc(S(N)(=O)=O)cc3)C(c3ccc4ccccc4c3)C2)c1 (centres undefined) 1

Threshold test, IC50 < 20 µM: Cc1ccc(C2=NN(c3ccc(S(N)(=O)=O)cc3)C(c3ccc4ccccc4c3)C2)cc1 (centres undefined) 1
